system: Fonsecaea; test: Antimicrobial activity against Fonsecaea isolates after 72 hrs by CLSI M38-A2 protocol method; type: functional
For each record, write down the corresponding log10(MIC90).
Hello, just confirming the data are log10 of MIC90 with units of µg/mL.

Look up log10(MIC90): "C[C@@H](c1ncncc1F)[C@](O)(Cn1cncn1)c1ccc(F)cc1F"
-0.30

Look up log10(MIC90): "OC(Cn1cncn1)(Cn1cncn1)c1ccc(F)cc1F"
1.51

Look up log10(MIC90): "C[C@@H]1[C@H](O)[C@@H](C)/C=C/C=C/C=C/C=C/C=C/C=C/C=C/[C@H](O[C@@H]2O[C@H](C)[C@@H](O)[C@H](N)[C@@H]2O)C[C@@H]2O[C@](O)(C[C@@H](O)C[C@@H](O)[C@H](O)CC[C@@H](O)C[C@@H](O)CC(=O)O[C@H]1C)C[C@H](O)[C@H]2C(=O)O"
0.30

Look up log10(MIC90): "C[C@@H](c1nc(-c2ccc(C#N)cc2)cs1)[C@](O)(Cn1cncn1)c1cc(F)ccc1F"
-0.60

Look up log10(MIC90): "CC[C@@H]([C@H](C)O)n1ncn(-c2ccc(N3CCN(c4ccc(OC[C@@H]5CO[C@@](Cn6cncn6)(c6ccc(F)cc6F)C5)cc4)CC3)cc2)c1=O"
-1.20

Look up log10(MIC90): CCC(C)n1ncn(-c2ccc(N3CCN(c4ccc(OCC5COC(Cn6cncn6)(c6ccc(Cl)cc6Cl)O5)cc4)CC3)cc2)c1=O (configuration not stated)
-0.90

Look up log10(MIC90): "CC[C@H](C)C[C@H](C)CCCCCCCCC(=O)N[C@H]1C[C@@H](O)[C@@H](NCCN)NC(=O)[C@@H]2[C@@H](O)CCN2C(=O)[C@H]([C@H](O)CCN)NC(=O)[C@H]([C@H](O)[C@@H](O)c2ccc(O)cc2)NC(=O)[C@@H]2C[C@@H](O)CN2C(=O)[C@H]([C@@H](C)O)NC1=O"
0.30

----------
system: Fonsecaea; assay: Antimicrobial activity against Fonsecaea nubica isolates after 72 hrs by CLSI M38-A2 protocol method; format: functional
reportedEndpoint: MIC (µg/mL)
Could you give me the number in µg/mL? Just the number is fine.

Look up MIC: CC[C@@H]([C@H](C)O)n1ncn(-c2ccc(N3CCN(c4ccc(OC[C@@H]5CO[C@@](Cn6cncn6)(c6ccc(F)cc6F)C5)cc4)CC3)cc2)c1=O [POSACONAZOLE]
0.031

----------
tested on: Fonsecaea monophora; experiment: Antimicrobial activity against Fonsecaea monophora isolates after 72 hrs by CLSI M38-A2 protocol method; type: functional
Starred links: 1 amine or outer side, 2 acyl side, 3 side chain; linkers in the order of their positions; H or OH if unused. Positions of bridges follow the written chain, without caps; N, C: chain ends. Non-standard residues stand in square brackets, D forms with d. Residues, ends and D or L forms follow the SMILES beside them. *: point of attachment. pTerphenylCO(4''-OnC5H11) = CCCCCOc1ccc(-c2ccc(-c3ccc(C(=O)*)cc3)cc2)cc1; Orn(4R-OH,5R-OH) = O=C([C@H](C[C@@H](O)[C@@H](O)N[*:3])N[*:1])[*:2]; hTyr(3S-OH,4S-OH) = N[C@H](C(=O)O)[C@H](O)[C@@H](O)c1ccc(O)cc1; Pro(3S-OH,4S-Me) = C[C@H]1CN[C@H](C(=O)O)[C@H]1O; Hyp = O=C(O)[C@@H]1C[C@@H](O)CN1
For each record, write down the corresponding MIC50.
Could you give me the number in µg/mL? Just the number is fine.

Look up MIC50: "OC(Cn1cncn1)(Cn1cncn1)c1ccc(F)cc1F"
16

Look up MIC50: "CC[C@@H]([C@H](C)O)n1ncn(-c2ccc(N3CCN(c4ccc(OC[C@@H]5CO[C@@](Cn6cncn6)(c6ccc(F)cc6F)C5)cc4)CC3)cc2)c1=O"
0.031

Look up MIC50: "CC[C@H](C)C[C@H](C)CCCCCCCCC(=O)N[C@H]1C[C@@H](O)[C@@H](NCCN)NC(=O)[C@@H]2[C@@H](O)CCN2C(=O)[C@H]([C@H](O)CCN)NC(=O)[C@H]([C@H](O)[C@@H](O)c2ccc(O)cc2)NC(=O)[C@@H]2C[C@@H](O)CN2C(=O)[C@H]([C@@H](C)O)NC1=O"
2

Look up MIC50: "C[C@@H](c1nc(-c2ccc(C#N)cc2)cs1)[C@](O)(Cn1cncn1)c1cc(F)ccc1F"
0.125

Look up MIC50: "C[C@@H]1[C@H](O)[C@@H](C)/C=C/C=C/C=C/C=C/C=C/C=C/C=C/[C@H](O[C@@H]2O[C@H](C)[C@@H](O)[C@H](N)[C@@H]2O)C[C@@H]2O[C@](O)(C[C@@H](O)C[C@@H](O)[C@H](O)CC[C@@H](O)C[C@@H](O)CC(=O)O[C@H]1C)C[C@H](O)[C@H]2C(=O)O"
1

Look up MIC50: CCCCCOc1ccc(-c2ccc(-c3ccc(C(=O)N[C@H]4C[C@@H](O)[C@@H](O)NC(=O)[C@@H]5[C@@H](O)[C@@H](C)CN5C(=O)[C@H]([C@@H](C)O)NC(=O)[C@H]([C@H](O)[C@@H](O)c5ccc(O)cc5)NC(=O)[C@@H]5C[C@@H](O)CN5C(=O)[C@H]([C@@H](C)O)NC4=O)cc3)cc2)cc1 [ANIDULAFUNGIN] ({pTerphenylCO(4''-OnC5H11)}-[Orn(4R-OH,5R-OH)]T[Hyp][hTyr(3S-OH,4S-OH)]T[Pro(3S-OH,4S-Me)]; lactam 1-C)
4

Look up MIC50: CCC(C)n1ncn(-c2ccc(N3CCN(c4ccc(OCC5COC(Cn6cncn6)(c6ccc(Cl)cc6Cl)O5)cc4)CC3)cc2)c1=O (stereo not drawn)
0.063

Look up MIC50: "C[C@@H](c1ncncc1F)[C@](O)(Cn1cncn1)c1ccc(F)cc1F"
0.063

All values here come from ChEMBL document CHEMBL1255398.
